- measured target: His6-avi-MBP-tagged POLE2
- assay method text: Single-point nHU-MS with recombinant His6-avi-MBP-POLE2 bait, Jurkat extract
- Format: binding, human
- condition notes: significant apparent affinity of endogenous prey protein for POLE2 bait; single-point nHU-MS; Figure S11
measurement kind: pKapp_sign
Response field accepts a number only; no unit should be typed.

Short answer for TSPTSD [NUMB, endogenous full length prey protein] : pKapp_sign was 4.316

substance TNSTSD [PIKFYVE] , pKapp_sign observed: 4.132

Field pKapp_sign (entry PVGGND [USP9X, endogenous full length prey protein] ) reads 4.835

Value of pKapp_sign reported for the substance KPTSTYSLSS [VIPAS39] is 4.13

Sample NSVD [PLEKHA5, endogenous full length prey protein] ; pKapp_sign observed: 4.548

Reported pKapp_sign of QDLGNI [CTSA] : 4.815

In plain terms, RSVD [PLEKHA7] has a documented pKapp_sign of 4.312

Quick note, pKapp_sign for TSETSK [SYNJ1] landed at 4.4418

Note to self: pKapp_sign recorded for PVLGNI [SSBP3] was 4.288

Memo: KPKKPLTSSS [MAPRE1] , reported pKapp_sign: 4.964

pKapp_sign reading for TTAATSV [SEC23IP] : 4.243

For PPSSKVSSHS [CNTRL] the substance record lists pKapp_sign as 4.363

The reported pKapp_sign of the substance RSRSVS [ZNRF1] was 4.487

Numbers sourced from paper PMC12808100.
